Test: protein stability index of a GFP-peptide fusion (GPS, HEK-293T) (PSI 1-6); higher = more stable;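 further: 24-mer peptide tiles fused after GFP, lentivirally expressed, FACS-sorted into six equal bins by GFP/DsRed ratio, decoded by Illumina sequencing, PSI is the read-weighted mean bin number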
Conditions: treatment: DMSO; c terminus: a fixed tail appended
property name: protein stability index
When you answer, write just the number.

# example entries with known answers
>  <record sequence>
EIIRVILKLYEQWKNFDERKEMAT [CCNC]

>  <protein stability index>
2.09

$$$$
>  <record sequence>
DAQLLPHHSLQAHFRPRFHPLPTV [TMEM192]

>  <protein stability index>
3.22

$$$$
>  <record sequence>
GLGELGAALLQLVRRLQALRLERE [ESRRA]

>  <protein stability index>
2.66

$$$$

Provide protein stability index value for the following sequence: PAQVPREVLKVQTHLENPTRYHLQ [TFE3]
3.75

Provide measured protein stability index value, entry: EKLATDTSTFEATSEGTLELQQRN [ZNF232]
5.29

Hello, the source for this data is the supplement of paper PMC10567573, in case you need it.
